target system: PI3K gamma (Homo sapiens, UniProt P48736)
Sequence (P48736 144-1102 limits assumed): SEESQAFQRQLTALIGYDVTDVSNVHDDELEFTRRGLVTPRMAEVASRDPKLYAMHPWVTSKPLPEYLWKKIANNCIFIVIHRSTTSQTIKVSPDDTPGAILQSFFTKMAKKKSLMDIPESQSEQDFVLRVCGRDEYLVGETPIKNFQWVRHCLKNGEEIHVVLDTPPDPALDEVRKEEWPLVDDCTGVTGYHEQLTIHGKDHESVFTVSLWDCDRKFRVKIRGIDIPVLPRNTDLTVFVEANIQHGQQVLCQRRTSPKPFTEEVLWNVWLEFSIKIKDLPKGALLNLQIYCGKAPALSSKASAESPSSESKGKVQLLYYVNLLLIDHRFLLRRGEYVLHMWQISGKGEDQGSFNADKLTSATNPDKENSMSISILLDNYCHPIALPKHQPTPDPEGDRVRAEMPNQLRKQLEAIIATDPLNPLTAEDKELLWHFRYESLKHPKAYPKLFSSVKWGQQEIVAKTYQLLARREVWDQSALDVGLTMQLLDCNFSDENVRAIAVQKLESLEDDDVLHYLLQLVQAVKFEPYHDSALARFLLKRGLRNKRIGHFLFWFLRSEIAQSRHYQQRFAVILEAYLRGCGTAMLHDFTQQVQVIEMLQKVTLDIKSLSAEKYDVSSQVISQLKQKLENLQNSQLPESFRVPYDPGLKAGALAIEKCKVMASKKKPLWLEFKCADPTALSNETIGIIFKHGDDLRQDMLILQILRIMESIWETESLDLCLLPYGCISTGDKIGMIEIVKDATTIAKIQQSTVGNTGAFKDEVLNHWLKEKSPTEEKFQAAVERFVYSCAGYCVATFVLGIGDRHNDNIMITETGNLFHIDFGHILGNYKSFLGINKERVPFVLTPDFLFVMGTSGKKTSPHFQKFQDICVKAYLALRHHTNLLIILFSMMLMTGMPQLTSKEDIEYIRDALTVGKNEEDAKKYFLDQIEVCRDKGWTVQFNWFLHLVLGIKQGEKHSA
quantity name: IC50 (µM)

1) COc1cc(-c2ccc3nc(C)c(-c4cnc(N)c(C(F)(F)F)c4)n3n2)ccc1OCCNC(=O)Nc1cccc(C#N)c1 [Example 47]; 4.5

P = COc1cc(-c2ccc3nc(C)c(-c4cnc(N)c(C(F)(F)F)c4)n3n2)ccc1OCCCN1CCNC1=O [Example 96]
Q = COc1cc(-c2ccc3nc(C)c(-c4cnc(N)c(C(F)(F)F)c4)n3n2)ccc1OCCCN1CCCC1=O [Example 77]
Challenge: Would you mind telling me which has the lower recorded IC50 between P and Q ? Use the label to indicate which entry you chose.
Response given: P

* * *

target system: PI3K delta (Homo sapiens)
Construct: for the full-length p110-d subunit are generated and fused by overlapping PCR; p85(iSH2) fusion partner (same polypeptide; see partner chain) (N); Gly linker (N); His tag (C); Tn5 (Trichoplusia ni) or TiniPro insect cells
Sequence (O00329 with tags, fused parts or gaps limits assumed): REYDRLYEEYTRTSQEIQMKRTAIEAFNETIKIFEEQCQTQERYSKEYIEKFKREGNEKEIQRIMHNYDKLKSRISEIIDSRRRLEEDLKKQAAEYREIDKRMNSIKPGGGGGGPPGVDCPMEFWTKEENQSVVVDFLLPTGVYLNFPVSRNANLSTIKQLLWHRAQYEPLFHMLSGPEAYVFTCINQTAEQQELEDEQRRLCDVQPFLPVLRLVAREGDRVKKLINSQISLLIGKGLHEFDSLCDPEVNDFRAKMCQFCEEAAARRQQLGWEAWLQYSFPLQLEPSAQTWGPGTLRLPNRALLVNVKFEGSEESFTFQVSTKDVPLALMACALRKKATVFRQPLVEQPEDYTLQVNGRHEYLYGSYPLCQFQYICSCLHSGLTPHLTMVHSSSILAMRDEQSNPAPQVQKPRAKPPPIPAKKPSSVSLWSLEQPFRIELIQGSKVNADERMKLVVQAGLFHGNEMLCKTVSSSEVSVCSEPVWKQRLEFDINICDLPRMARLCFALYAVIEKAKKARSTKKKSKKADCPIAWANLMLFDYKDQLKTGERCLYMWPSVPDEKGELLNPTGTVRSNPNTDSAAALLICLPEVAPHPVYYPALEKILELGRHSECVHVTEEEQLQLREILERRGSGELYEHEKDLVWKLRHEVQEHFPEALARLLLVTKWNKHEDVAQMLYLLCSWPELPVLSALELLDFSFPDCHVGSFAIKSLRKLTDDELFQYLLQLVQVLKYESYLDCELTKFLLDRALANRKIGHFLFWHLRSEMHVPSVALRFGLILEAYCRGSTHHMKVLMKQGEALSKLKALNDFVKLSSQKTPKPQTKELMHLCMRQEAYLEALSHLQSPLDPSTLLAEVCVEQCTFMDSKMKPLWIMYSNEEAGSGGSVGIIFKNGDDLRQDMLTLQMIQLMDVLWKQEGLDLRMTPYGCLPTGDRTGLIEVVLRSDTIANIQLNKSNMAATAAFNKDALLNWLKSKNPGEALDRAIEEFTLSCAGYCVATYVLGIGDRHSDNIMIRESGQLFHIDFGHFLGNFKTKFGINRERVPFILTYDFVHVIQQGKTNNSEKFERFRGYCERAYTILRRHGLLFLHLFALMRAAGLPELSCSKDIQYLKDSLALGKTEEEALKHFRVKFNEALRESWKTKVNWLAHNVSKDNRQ
assay remarks: PI3K delta enzymatic assay (Kinase-Glo luminescence)
assay conditions: Enzymatic Data
pIC50: −log10 of the molar value.
quantity name: pIC50

Known results for compounds:
1. COc1ccc(S(=O)(=O)n2ccc(-c3c(C)nc4ccc(-c5ccc(OC)c(OC)c5)nn34)n2)cc1; 6.05
2. COc1cc(-c2ccc3nc(C)c(-c4cnc(N)c(C(F)(F)F)c4)n3n2)ccc1OCCNC(=O)c1ccc(N2CCOCC2)cc1; 5.17

A = COc1ccc(-c2ccc3nc(C)c(-c4ccnc(NCC5CC5)n4)n3n2)cc1OC
B = Cc1nc2ccc(-c3ccc(OCC4(NC(=O)OC(C)(C)C)COC4)cc3)nn2c1-c1cnc(N)c(C(F)(F)F)c1
Challenge: Which value of pIC50 is greater, the one for A or the one for B ? Use the label to indicate which entry you chose.
Response given: A

* * *

target system: PI3K alfa (Homo sapiens, UniProt P42336)
Construct: p85(iSH2) fusion partner (same polypeptide; see partner chain) (N); 12x Gly linker (N); His tag (C); Tn5 (Trichoplusia ni) or TiniPro insect cells
Sequence (P42336 with tags, fused parts or gaps limits assumed): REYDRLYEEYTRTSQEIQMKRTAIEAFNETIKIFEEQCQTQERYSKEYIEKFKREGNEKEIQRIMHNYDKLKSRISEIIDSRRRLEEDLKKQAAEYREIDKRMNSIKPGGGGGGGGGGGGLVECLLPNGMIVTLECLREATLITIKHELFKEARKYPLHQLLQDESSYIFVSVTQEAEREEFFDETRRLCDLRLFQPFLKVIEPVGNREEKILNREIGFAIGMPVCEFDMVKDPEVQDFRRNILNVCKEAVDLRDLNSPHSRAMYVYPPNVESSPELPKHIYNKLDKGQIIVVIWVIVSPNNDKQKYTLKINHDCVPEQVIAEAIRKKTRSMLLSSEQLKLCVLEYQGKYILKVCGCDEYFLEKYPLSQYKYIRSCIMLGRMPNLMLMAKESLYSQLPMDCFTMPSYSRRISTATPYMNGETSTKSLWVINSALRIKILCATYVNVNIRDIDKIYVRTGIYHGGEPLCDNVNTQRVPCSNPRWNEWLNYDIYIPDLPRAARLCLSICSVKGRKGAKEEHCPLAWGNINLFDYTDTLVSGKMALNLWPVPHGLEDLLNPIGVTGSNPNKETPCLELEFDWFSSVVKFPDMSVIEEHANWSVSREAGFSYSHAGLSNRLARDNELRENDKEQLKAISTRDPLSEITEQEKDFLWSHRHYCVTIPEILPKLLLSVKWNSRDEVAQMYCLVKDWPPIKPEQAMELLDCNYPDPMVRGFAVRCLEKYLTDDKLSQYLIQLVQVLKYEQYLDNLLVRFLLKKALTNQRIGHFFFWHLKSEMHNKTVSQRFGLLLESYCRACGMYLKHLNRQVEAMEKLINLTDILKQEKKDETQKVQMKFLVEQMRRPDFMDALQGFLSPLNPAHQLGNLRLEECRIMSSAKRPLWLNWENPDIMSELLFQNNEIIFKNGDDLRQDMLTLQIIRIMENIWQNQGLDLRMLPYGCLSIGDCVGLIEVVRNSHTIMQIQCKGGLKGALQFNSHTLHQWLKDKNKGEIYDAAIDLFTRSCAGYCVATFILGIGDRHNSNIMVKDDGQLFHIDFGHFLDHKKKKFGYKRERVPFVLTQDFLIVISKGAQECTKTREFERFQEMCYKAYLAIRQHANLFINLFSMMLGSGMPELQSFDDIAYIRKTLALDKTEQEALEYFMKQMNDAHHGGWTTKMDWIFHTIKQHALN
assay remarks: PI3K alfa enzymatic assay (Kinase-Glo luminescence)
assay conditions: Enzymatic Data
pIC50: −log10 of the molar value.
quantity name: pIC50

Known results for compounds:
1) Cc1nc2ccc(-c3ccc(OCC4(N)COC4)cc3)nn2c1-c1cnc(N)c(C(F)(F)F)c1; 6.88
2) COc1cc(-c2ccc3nc(C)c(-c4ccc(S(C)(=O)=O)cc4)n3n2)ccc1OC1CCN(C(=O)OC(C)(C)C)CC1; 5.04
3) COc1cc(-c2ccc3nc(C)c(-c4cnc(N)c(C(F)(F)F)c4)n3n2)ccc1OCCCNC(=O)C(F)(F)F; 6.61

1 = Cc1nc2ccc(-c3ccc4c(c3)OCO4)nn2c1-c1cnc2[nH]ccc2c1
2 = Cc1nc2ccc(-c3ccc(OCCCN4CCCC4=O)cc3)nn2c1-c1ccc(S(C)(=O)=O)cc1
3 = COc1cc(-c2ccc3nc(C)c(-c4cnc(N)c(C(F)(F)F)c4)n3n2)ccc1OCCNC(=O)c1cccnc1
Challenge: Put these in order: smallest pIC50 first, largest last. Please reply with the labels ordered as requested. Many thanks.
Response given: 1, 2, 3
(1: 5.23, 2: 5.66, 3: 7.42)

a = Cc1nc2ccc(-c3ccc4c(c3)OCO4)nn2c1-c1cnc(N)c(C(F)(F)F)c1
b = COc1cc(-c2ccc3nc(C)c(-c4cnc(N)c(C(F)(F)F)c4)n3n2)ccc1OCCNC(=O)c1ccc(N2CCOCC2)cc1
Challenge: Which value of pIC50 is greater, the one for a or the one for b ? Use the label to indicate which entry you chose.
Response given: b

A = Cc1nc2ccc(-c3ccc(OCC4(NC(=O)OC(C)(C)C)COC4)cc3)nn2c1-c1cnc(N)c(C(F)(F)F)c1
B = COc1cc(-c2ccc3nc(C)c(-c4cnc(N)c(C(F)(F)F)c4)n3n2)ccc1OCCNC(=O)Nc1cccc(C(F)(F)F)c1
C = COc1cc(-c2ccc3nc(C)c(-c4cnc(N)c(C(F)(F)F)c4)n3n2)ccc1OCCN
Challenge: Reorder: pIC50, max to min. Please reply with the labels ordered as requested. Many thanks.
Response given: C, A, B

A = COc1cc(-c2ccc3nc(C)c(-c4cnc(N)c(C(F)(F)F)c4)n3n2)ccc1OCCN1CCNC1=O
B = COc1cc(-c2ccc3nc(C)c(-c4cnc(N)c(C(F)(F)F)c4)n3n2)ccc1OCCCN
C = COc1cc(-c2ccc3nc(C)c(-c4cnc(N)c(C(F)(F)F)c4)n3n2)ccc1OCCCNC(=O)OC(C)C
D = COc1cc(-c2ccc3nc(C)c(-c4cnc(N)c(C(F)(F)F)c4)n3n2)ccc1OCCNC(=O)c1cccc(C#N)c1
E = Cc1nc2ccc(-c3ccc(OCC4(NC(=O)OCc5ccccc5)COC4)cc3)nn2c1-c1cnc(N)c(C(F)(F)F)c1
Challenge: Put these in order: smallest pIC50 first, largest last. Please reply with the labels ordered as requested. Many thanks.
Response given: E, D, C, A, B

The reported numbers originate from patent US20100305113A1.
